- subject.of.test: Structural capsid protein (Human immunodeficiency virus 1)
- assay.info: Binding affinity to HIV1 capsid assessed as assembly rate per minute by ultraviolet spectrophotometry assay
Parameter Activity (milli optical density/minute): see the listing below.
Answer with the value's number alone.

> print(dat)
                            compound.smiles                           subject.of.test  observed.measurement
1      O=C1OCc2ccc(NC(=S)Nc3ccc(Cl)cc3)cc21  Structural capsid protein (Human immunodeficiency virus 1)                  49.6
2  O=C1OCc2ccc(NC(=S)Nc3cc(Cl)c(Cl)cc3Cl)cc21  Structural capsid protein (Human immunodeficiency virus 1)                  67.8
3  O=S(=O)(Nc1nccs1)c1ccc(NC(=S)Nc2ccc(Cl)cc2)cc1  Structural capsid protein (Human immunodeficiency virus 1)                  52.5
4  Cc1cc(NS(=O)(=O)c2ccc(NC(=S)Nc3cccc(Br)c3)cc2)no1  Structural capsid protein (Human immunodeficiency virus 1)                  31.2

Name the reported Activity (milli optical density/minute) value associated with the compound `COc1ccc(NC(=S)Nc2ccc3c(c2)C(=O)OC3)cc1`
59.1

Quick one: Activity (milli optical density/minute) for `Cc1ccc(NC(=S)Nc2ccc(C)c([N+](=O)[O-])c2)cc1Cl` ?
60

###

- assay.info: Cytotoxicity against human CEM cells
- Format: cell-based
- details: CEM cells (CCRF-CEM), read-out: TC50 (the source's name)
# binning rule on CC50: 1 (below 40 µM), 2 (40 µM to below 80 µM), 3 (80 µM or more)

Sample answers from the record:
> print(dat)
                            compound.smiles  class
1  Cc1cc(NS(=O)(=O)c2ccc(NC(=S)Nc3cccc(Cl)c3)cc2)no1      3
2  Cc1ccc(NC(=S)Nc2ccc(S(=O)(=O)Nc3nccs3)cc2)cc1Cl      1
3  Cc1cc(NS(=O)(=O)c2ccc(NC(=S)Nc3cccc(Br)c3)cc2)no1      2
4      O=C1OCc2ccc(NC(=S)Nc3ccc(Cl)cc3)cc21      3
5  Cc1cc(NS(=O)(=O)c2ccc(NC(=S)Nc3ccc(F)cc3)cc2)no1      2
6    COc1ccc(NC(=S)Nc2ccc3c(c2)C(=O)OC3)cc1      3

Now let's try a different one.
Using the reported CC50, which band applies to `O=C1OCc2ccc(NC(=S)Nc3cc(Cl)c(Cl)cc3Cl)cc21` ?
1

###

# collection of pIC50 values tested on Peptidyl-prolyl cis-trans isomerase A (Homo sapiens, UniProt P62937)
# Sequence (P62937 whole entry): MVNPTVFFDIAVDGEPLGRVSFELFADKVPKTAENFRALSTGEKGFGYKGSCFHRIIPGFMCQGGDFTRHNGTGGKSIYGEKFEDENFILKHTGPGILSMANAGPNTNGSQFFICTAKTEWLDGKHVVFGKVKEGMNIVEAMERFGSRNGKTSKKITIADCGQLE
API: returns pIC50 as number; meaning -log10 of concentration in mol/L.

// worked examples, pIC50 included
> print(dat)
                            compound.smiles  measured.parameter  observed.measurement
1  Cc1cc(NS(=O)(=O)c2ccc(NC(=S)Nc3ccc(Cl)cc3)cc2)no1               pIC50                  6.16
2  Cc1cc(NS(=O)(=O)c2ccc(NC(=S)Nc3cccc(F)c3)cc2)no1               pIC50                  6.42
3  Cc1cc(NS(=O)(=O)c2ccc(NC(=S)Nc3cccc(Cl)c3)cc2)no1               pIC50                  6.48
4  CCN(CC)c1nc(C)c([N+](=O)[O-])c(NCCNC(=S)Nc2ccc(C)c(Cl)c2)n1               pIC50                  6.13
5  O=S(=O)(Nc1nccs1)c1ccc(NC(=S)Nc2ccc(Cl)cc2)cc1               pIC50                  6.89

// fetch Peptidyl-prolyl cis-trans isomerase A (Homo sapiens, UniProt P62937) pIC50 for `Cc1cc(NS(=O)(=O)c2ccc(NC(=S)Nc3ccc(F)cc3)cc2)no1`
6.46

Record lookup: for Peptidyl-prolyl cis-trans isomerase A (Homo sapiens, UniProt P62937), what pIC50 belongs to `CCN(CC)c1nc(C)c([N+](=O)[O-])c(NCCNC(=S)Nc2cccc(Br)c2)n1` ?
6.09

Please state recorded pIC50 (tested on Peptidyl-prolyl cis-trans isomerase A (Homo sapiens, UniProt P62937)) of `Cc1cc(NS(=O)(=O)c2ccc(NC(=S)Nc3ccccc3)cc2)no1`
6.24

Request: pIC50, test system Peptidyl-prolyl cis-trans isomerase A (Homo sapiens, UniProt P62937), entry `Cc1cc(NS(=O)(=O)c2ccc(NC(=S)Nc3ccccc3C)cc2)no1`
6.22

Any idea what pIC50 came out for `Cc1ccc(NC(=S)Nc2ccc3c(c2)C(=O)OC3)cc1Cl` on Peptidyl-prolyl cis-trans isomerase A (Homo sapiens, UniProt P62937)?
6.23

###

selectivity ratio for assorted compounds
- assay.info: Therapeutic index, TC50 for human CEM cells to EC50 for SIV
- Assay type: cell-based, CCRF-CEM
Form rule: numeric answer, no unit written next to it.

> print(dat)
                            compound.smiles  measured.parameter  observed.measurement
1         COc1ccc(NC(=S)Nc2ccc3ccccc3c2)cc1   selectivity ratio                     7
2  Cc1cc(NS(=O)(=O)c2ccc(NC(=S)Nc3ccc(Cl)cc3)cc2)no1   selectivity ratio                     9
3  Cc1cc(NS(=O)(=O)c2ccc(NC(=S)Nc3cccc(Cl)c3)cc2)no1   selectivity ratio                    92
4  COc1ccc(NC(=S)Nc2ccc(S(=O)(=O)Nc3cc(C)on3)cc2)cc1   selectivity ratio                    27

What measured selectivity ratio goes with `O=C1OCc2ccc(NC(=S)Nc3cc(F)cc(F)c3)cc21` ?
11

Form field: reported selectivity ratio of `CCN(CC)c1nc(C)c([N+](=O)[O-])c(NCCNC(=S)Nc2cccc(Br)c2)n1`
4

What value of measured selectivity ratio is listed for `Cc1ccc(NC(=S)Nc2ccc(S(=O)(=O)Nc3nccs3)cc2)cc1` ?
9

###

- subject.of.test: Peptidyl-prolyl cis-trans isomerase A (Homo sapiens)
measured.parameter: IC50 (nM)
Value expressed in nM; do not type the unit.

# query: IC50 | item `Cc1cc(NS(=O)(=O)c2ccc(NC(=S)Nc3ccc(C)c(Cl)c3)cc2)no1` | system: Peptidyl-prolyl cis-trans isomerase A (Homo sapiens)
650

Please state recorded IC50 (tested on Peptidyl-prolyl cis-trans isomerase A (Homo sapiens)) of `Cc1ccc(NC(=S)Nc2ccc(S(=O)(=O)Nc3nccs3)cc2)cc1Cl`
160

Return IC50 measured with Peptidyl-prolyl cis-trans isomerase A (Homo sapiens) given this compound: `Cc1ccc(NC(=S)Nc2ccc(C)c([N+](=O)[O-])c2)cc1Cl`
460

Missing value: IC50, Peptidyl-prolyl cis-trans isomerase A (Homo sapiens), entry `Cc1ccc(NC(=S)Nc2ccc(S(=O)(=O)Nc3nccs3)cc2)cc1` . Fill in?
450

Checklist item: IC50 tested on Peptidyl-prolyl cis-trans isomerase A (Homo sapiens), entry `Cc1cc(NS(=O)(=O)c2ccc(NC(=S)Nc3cccc(Br)c3)cc2)no1` , value?
450

###

In this section, each of the compounds is paired with its reported CC50.
- assay.info: Cytotoxicity against human CEM cells
- Format: cell-based
- details: CEM cells (CCRF-CEM), read-out: TC50 (the source's name)
Field: numeric (µM). Do not append units.

> print(dat)
                         compound.smiles  measured.parameter  observed.measurement
1    O=C1OCc2ccc(NC(=S)Nc3ccc(F)cc3)cc21                CC50                  83.7
2  Cc1cccc(NC(=S)Nc2ccc3c(c2)C(=O)OC3)c1                CC50                    16

Then this compound:
Query: CC50; subject: `Cc1cc(NS(=O)(=O)c2ccc(NC(=S)Nc3ccccc3C)cc2)no1`
48.4

###

Reported Kd by item:
- subject.of.test: Peptidyl-prolyl cis-trans isomerase A (Homo sapiens, UniProt P62937)
- assay.info: Binding affinity to human cyclophilin A by intrinsic tryptophan fluorescence titration assay
- details: read-out: Kd
The answer is to be given in µM; state only the numeric part.

> print(dat)
                            compound.smiles  observed.measurement
1  Cc1cc(NS(=O)(=O)c2ccc(NC(=S)Nc3cccc(F)c3)cc2)no1                   128
2       O=C1OCc2ccc(NC(=S)Nc3ccc(F)cc3)cc21                   227
3  Cc1cc(NS(=O)(=O)c2ccc(NC(=S)Nc3ccc(F)cc3)cc2)no1                   110
4         COc1ccc(NC(=S)Nc2ccc3ccccc3c2)cc1                   124

Need Kd, item `O=C1OCc2ccc(NC(=S)Nc3cc(F)cc(F)c3)cc21`
513

Name the recorded Kd for `Cc1cc(NS(=O)(=O)c2ccc(NC(=S)Nc3ccccc3C)cc2)no1` .
116

Using the record for `O=S(=O)(Nc1nccs1)c1ccc(NC(=S)Nc2ccc(Cl)cc2)cc1` , report its Kd.
51

Looking for the measured Kd of `CCN(CC)c1nc(C)c([N+](=O)[O-])c(NCCNC(=S)Nc2ccc(C)c(Cl)c2)n1` , can you help?
73.3
